assay: Hemolytic activity in sheep RBC; format: toxicity, cell-based, Ovis aries, Erythrocyte; conditions: sheep red blood cells (erythrocytes)
Returns: string. Value is YES if measured HC50 is below 300 µg/mL, and NO if it is greater than or equal to it.

# example entries with known answers
A record lists CC(=O)c1ccc2c(c1OCC(=O)NCCN(C)C)C=CC(C)(CCC=C(C)C)O2 (stereo not given) . Is its HC50 below 300 µg/mL? NO

A record lists COc1c(C(=O)/C=C/c2ccc(OCCCNCCN(C)C)cc2)ccc2c1C=CC(C)(CCC=C(C)C)O2 (stereo not given) . Is its HC50 below 300 µg/mL? YES

A record lists CC(=O)c1ccc2c(c1OCCCN(CCCN(C)C)CCCN(C)C)C=CC(C)(CCC=C(C)C)O2 (stereo not given) . Is its HC50 below 300 µg/mL? NO

A record lists CCCCN(CCCC)CCCNCCCOc1ccc(/C=C/C(=O)c2ccc3c(c2OC)C=CC(C)(CCC=C(C)C)O3)cc1 (stereo not given) . Is its HC50 below 300 µg/mL? YES

Pending molecule:
A record lists CCN(CC)C(=O)COc1c(C(C)=O)ccc2c1C=CC(C)(CCC=C(C)C)O2 (stereo not given) . Is its HC50 below 300 µg/mL? YES

The values you see were collected from ChEMBL document CHEMBL5614413.
